All values here come from ChEMBL document CHEMBL4842350.

# TARGET SYSTEM: Bromodomain-containing protein 4 (Homo sapiens)
# ASSAY PROCEDURE: Inhibition of BRD4 in human whole blood assessed as reduction in LPS-induced IL-6 secretion preincubated for 30 mins followed by LPS stimulation and measured after 24 hrs by MSD assay
# Assay type: tissue-based
PROPERTY LABEL: IC50 (nM)

Form field IC50, entry COc1cc2c(cc1-c1c(C)noc1C)ncc1nc(C3CCOCC3)n(C(C)C3CCOCC3)c12 (centres undefined) : 200

I. COc1cc2c(cc1-c1c(C)noc1C)ncc1nc(N3CCOCC3)n(CC3CCOCC3)c12
II. COc1cc2c(cc1-c1c(C)noc1C)ncc1nc(C3CCOCC3)n(CC3CC3)c12
III. COCC(C)n1c(C2CCOCC2)nc2cnc3cc(-c4c(C)noc4C)c(OC)cc3c21 (racemic)
Query: Rank the items in ascending order with respect to IC50. Give the labels in the order requested.
Result: I, III, II
(I: 251 nM, III: 398 nM, II: 2000 nM)

1. COC[C@@H](C)n1c(C2CCOCC2)nc2cnc3cc(-c4c(C)noc4C)c(OC)cc3c21
2. COCCNc1nc2cnc3cc(-c4c(C)noc4C)c(OC)cc3c2n1[C@H](C)c1ccccn1
Query: Which is greater in IC50, the first item 1 or the second item 2 ? Answer format: the label of the selected item.
Result: 1
(1: 316 nM, 2: 158 nM)

1. COc1cc2c(cc1-c1c(C)noc1C)ncc1nc(N(C)C)n(CC3CCOCC3)c12
2. COCCNc1nc2cnc3cc(-c4c(C)noc4C)c(OC)cc3c2n1Cc1ccccn1
Query: Which of these two has the smaller recorded IC50: 1 or 2 ? Answer format: the label of the selected item.
Result: 1
(1: 251 nM, 2: 398 nM)

* * *

# TARGET SYSTEM: Bromodomain-containing protein 4 (Homo sapiens, UniProt O60885)
# ASSAY PROCEDURE: Inhibition of BRD4 in human PBMC assessed as reduction in LPS-induced IL-6 secretion incubated for 18 to 24 hrs by MSD assay
PROPERTY LABEL: IC50 (nM)

P. COc1cc2c(cc1-c1c(C)noc1C)ncc1nc(C3CCOCC3)n(Cc3ccccn3)c12
Q. COc1cc2c(cc1-c1c(C)noc1C)ncc1nc(C(C)C)n(Cc3ccccn3)c12
R. COCc1nc2cnc3cc(-c4c(C)noc4C)c(OC)cc3c2n1Cc1ccccn1
Query: Lab note: order the above by reported IC50, lowest first, highest last. Give the labels in the order requested.
Result: Q, P, R
(Q: 158 nM, P: 251 nM, R: 398 nM)

* * *

# ASSAY PROCEDURE: Tmax in Wistar Han rat at 1 mg/kg, po measured upto 24 hrs by HPLC-MS/MS analysis
# Format: ADME, organism-based
# CONDITION INFO: in vivo
PROPERTY LABEL: Tmax (h)
Please reply with the bare figure in h and do not write the unit itself.

Form field Tmax, entry COC[C@@H](C)n1c(C2CCOCC2)nc2cnc3cc(-c4c(C)noc4C)c(OC)cc3c21 : 1

* * *

# ASSAY PROCEDURE: Tmax in Beagle dog at 5 mg/kg, po measured upto 24 hrs by HPLC-MS/MS analysis
# Type: ADME, organism-based, Canis lupus familiaris
# CONDITION INFO: in vivo
PROPERTY LABEL: Tmax (min)
Please reply with the bare figure in min and do not write the unit itself.

Form field Tmax, entry COC[C@@H](C)n1c(C2CCOCC2)nc2cnc3cc(-c4c(C)noc4C)c(OC)cc3c21 : 45
